Source: PubChem BioAssay AID1918991

- Test system: 186277-243-T-J2-PDC complex spheroid growth
- EXPERIMENT_SUMMARY: Anticancer human tumor 186277-243-T-J2-PDC patient-derived colon adenocarcinoma cell line growth inhibition [AhR]
- MEASUREMENT_CONTEXT: second compound 0.316 µM; first compound 0.0316 µM; active compounds read low
EXPERIMENTAL_ENDPOINT: viability, T/C (%)
All answers are understood in %, so give the number only.

### Prompt # get_value(readout='viability, T/C', item= CC1(C)CCC(CN2CCN(c3ccc(C(=O)NS(=O)(=O)c4ccc(NCC5CCOCC5)c([N+](=O)[O-])c4)c(Oc4cnc5[nH]ccc5c4)c3)CC2)=C(c2ccc(Cl)cc2)C1 + CC(CO)NC(=O)c1cc(-c2ccc(Cl)cc2)nn(-c2cnn(C)c2)c1=O )
### Response 108

New cases:
### Prompt # get_value(readout='viability, T/C', item= COc1cc(Nc2ncc3c(n2)-c2ccc(Cl)cc2C(c2c(F)cccc2OC)=NC3)ccc1C(=O)O + Cc1ccccc1N=Nc1ccc(NC(=O)c2ccnn2C)c(C)c1 )
### Response 134

### Prompt # get_value(readout='viability, T/C', item= COc1cc(C2c3cc4c(cc3C(OC3OC5COC(C)OC5C(O)C3O)C3COC(=O)C23)OCO4)cc(OC)c1O (configuration not stated) + CC(CO)NC(=O)c1cc(-c2ccc(Cl)cc2)nn(-c2cnn(C)c2)c1=O )
### Response 92.8

### Prompt # get_value(readout='viability, T/C', item= CC1COCCN1c1cc(C2(S(C)(=N)=O)CC2)nc(-c2ccnc3[nH]ccc23)n1 (configuration not stated) + Cc1cncc(-c2nc(NCCc3c[nH]c4ccccc34)c3ncn(C(C)C)c3n2)c1 )
### Response 96.8

### Prompt # get_value(readout='viability, T/C', item= O=C(C=Cc1cccc(S(=O)(=O)Nc2ccccc2)c1)NO + Cc1cncc(-c2nc(NCCc3c[nH]c4ccccc34)c3ncn(C(C)C)c3n2)c1 )
### Response 92.1

### Prompt # get_value(readout='viability, T/C', item= Nc1ccn(C2OC(CO)C(O)C2(F)F)c(=O)n1 (configuration not stated) + Cc1cncc(-c2nc(NCCc3c[nH]c4ccccc34)c3ncn(C(C)C)c3n2)c1 )
### Response 7.58

### Prompt # get_value(readout='viability, T/C', item= COc1cccc2c1C(=O)c1c(O)c3c(c(O)c1C2=O)CC(O)(C(=O)CO)CC3OC1CC(N)C(O)C(C)O1 (configuration not stated) + CC(CO)NC(=O)c1cc(-c2ccc(Cl)cc2)nn(-c2cnn(C)c2)c1=O )
### Response 38.3

====

- Test system: 186277-243-T-J2-PDC complex spheroid growth
- EXPERIMENT_SUMMARY: Anticancer human tumor 186277-243-T-J2-PDC cell line growth inhibition [AhR];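 note: luminescent signal used as a stand-in for viable cell amount; spheroids exposed to compounds for seven days before the viability read; 100% = DMSO vehicle control wells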
- MEASUREMENT_CONTEXT: second compound 1 µM; first compound 0.316 µM; active compounds read low
- Source text: Multicellular complex tumor spheroid response to aryl hydrocarbon receptor antagonists in combination with a variety of drugs and investigational agents in selected tumor cell lines […] Compounds. […] If the clinical Cmax for an agent had not been determined, the highest concentration tested was 10 microM (Table 1). […]
EXPERIMENTAL_ENDPOINT: viability, T/C (%)
All answers are understood in %, so give the number only.

Below, each entry is followed by its recorded viability, T/C result.
### Prompt # get_value(readout='viability, T/C', item= COc1cccc2c1C(=O)c1c(O)c3c(c(O)c1C2=O)CC(O)(C(=O)CO)CC3OC1CC(N)C(O)C(C)O1 (stereo not drawn) + Cc1ccccc1N=Nc1ccc(NC(=O)c2ccnn2C)c(C)c1 )
### Response 77.1

### Prompt # get_value(readout='viability, T/C', item= CC(C)c1c(-c2ccccc2)nc2c(C#N)c[nH]n2c1=O + CC(CO)NC(=O)c1cc(-c2ccc(Cl)cc2)nn(-c2cnn(C)c2)c1=O )
### Response 105

Let us examine a further case.
### Prompt # get_value(readout='viability, T/C', item= Nc1ccn(C2OC(CO)C(O)C2(F)F)c(=O)n1 (stereo not drawn) + CC(CO)NC(=O)c1cc(-c2ccc(Cl)cc2)nn(-c2cnn(C)c2)c1=O )
### Response 4.99
